Recorded values, source patent US20110028447A1.

# ASSAYED_TARGET: human CB1 receptor (Homo sapiens, UniProt P21554)
# Sequence (P21554 whole entry): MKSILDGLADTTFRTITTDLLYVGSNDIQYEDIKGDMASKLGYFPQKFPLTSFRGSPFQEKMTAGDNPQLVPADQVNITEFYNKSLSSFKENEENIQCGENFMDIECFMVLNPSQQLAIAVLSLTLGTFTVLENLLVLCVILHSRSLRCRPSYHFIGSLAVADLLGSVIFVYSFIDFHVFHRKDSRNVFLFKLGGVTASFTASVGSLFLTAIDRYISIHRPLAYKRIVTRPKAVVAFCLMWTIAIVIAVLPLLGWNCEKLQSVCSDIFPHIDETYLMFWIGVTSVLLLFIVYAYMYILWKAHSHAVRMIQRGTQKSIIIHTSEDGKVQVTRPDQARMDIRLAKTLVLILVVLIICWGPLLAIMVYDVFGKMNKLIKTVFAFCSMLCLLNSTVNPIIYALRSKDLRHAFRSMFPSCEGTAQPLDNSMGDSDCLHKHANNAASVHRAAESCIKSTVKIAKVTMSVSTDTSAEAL
# ASSAY_PROCEDURE: Human CB1 receptor binding, [3H] CP-55,940 displacement on HEK cell membranes
# Design: expressed in transfected cells; host or cells: HEK cells, doxycycline-induced; membrane preparation
# COND: read-out: CB1 Ki
pKi: −log10 of the molar value.
Note to self: values exactly at 8 are y. So pKi at or above 8 is y, below is n.

Please review the following examples before continuing.
MOLECULE	ASSIGNED_CATEGORY
Cc1nc(CNC(=O)[C@@H](NC(=O)c2nn(Cc3ccc(F)cc3)c3ccccc23)C(C)(C)C)nn1C	y
CC(C)(C)[C@H](NC(=O)c1nn(Cc2ccc(F)cc2)c2ccccc12)C(=O)NC[C@H](O)CN1CCCC1	n
CC(C)NC(=O)OC1CCCN(C(=O)[C@@H](NC(=O)c2nn(Cc3ccc(F)cc3)c3ccccc23)C(C)(C)C)C1 (stereo partly drawn)	n

Please turn your attention to the following entry.
Task item: Please check the record CC(C)(C)[C@H](NC(=O)c1nn(Cc2ccc(F)cc2)c2ccccc12)C(=O)NCc1nnc(C(=O)NCCO)o1 and state if its pKi is at or above 8.
Reply: y

---

# ASSAYED_TARGET: human CB1 receptor (Homo sapiens)
# ASSAY_PROCEDURE: [35S] GTPγS binding on membranes of CHO cells expressing the human CB1 receptor (agonism)
# Type: biochemical
# Set-up: expressed in transfected cells; membrane preparation
# COND: GTPγS EC50, human CB1, CHO cell membranes
VALUE_KIND: pEC50
Give bare numbers, as −log10 of the molar value.

Recorded pEC50, per entry:
COMPOUND	ASSAYED_TARGET	pEC50
CC(C)(C)C(NC(=O)c1nn(Cc2ccc(C#N)cc2)c2ccccc12)C(N)=O (stereo not drawn) [Example 28]	human CB1 receptor (Homo sapiens)	6.92
CC(C)(C)C(NC(=O)c1nn(Cc2ccc(F)cc2)c2ccc(F)cc12)C(=O)NCCCO (stereo not drawn) [Example 174]	human CB1 receptor (Homo sapiens)	8.74
CC(C)(C)[C@H](NC(=O)c1nn(Cc2ccc(F)cc2)c2ccccc12)C(=O)NC[C@H]1C[C@@H]1CO [Example 488]	human CB1 receptor (Homo sapiens)	7.67
CC(C)(C)[C@H](NC(=O)c1nn(Cc2ccc(F)cc2)c2ccc(Cl)cc12)C(=O)NC1CCC1 [Example 438]	human CB1 receptor (Homo sapiens)	7.70
CC(C)(C)[C@H](NC(=O)c1nn(Cc2ccc(F)cc2)c2ccccc12)C(=O)NCC(=O)NCCO [Example 376]	human CB1 receptor (Homo sapiens)	8.36
CC(C)(C)[C@H](NC(=O)c1nn(Cc2ccc(C#N)cc2F)c2c(F)c(F)ccc12)C(=O)NC1CC1 [Example 374]	human CB1 receptor (Homo sapiens)	7.90
CC(C)(C)C(NC(=O)c1nn(Cc2cccc(F)c2)c2ccccc12)C(N)=O (stereo not drawn) [Example 19]	human CB1 receptor (Homo sapiens)	7.69
CC(C)(C)[C@H](NC(=O)c1nn(Cc2ccc(F)cc2)c2ccccc12)C(=O)N1CC(F)(F)C1 [Example 330]	human CB1 receptor (Homo sapiens)	9.39
CC(C)(C)[C@H](NC(=O)c1nn(Cc2ccc(C#N)cc2)c2c(F)cccc12)C(=O)NCCCO [Example 109]	human CB1 receptor (Homo sapiens)	6.96
CC(C)(C)C(NC(=O)c1nn(Cc2ccc(F)cc2)c2ccc(F)cc12)C(N)=O (stereo not drawn) [Example 170]	human CB1 receptor (Homo sapiens)	9.15

# per-item lookup of pEC50; items listed below
1. CC(C)(C)C(NC(=O)c1nn(Cc2ccc(C#N)cc2)c2c(Cl)cccc12)C(=O)NCCCO (stereo not drawn) [Example 200]
2. CC(C)(C)[C@H](NC(=O)c1nn(Cc2ccc(F)cc2)c2ccccc12)C(=O)N[C@H]1C[C@@H](C(N)=O)C1 [Example 398]
3. CC(C)(C)C(NC(=O)c1nn(Cc2ccc(F)cc2)c2c(Cl)cccc12)C(=O)NCCO (stereo not drawn) [Example 183]
4. CC(C)(C)[C@H](NC(=O)c1nn(Cc2ccc(F)cc2)c2c(F)cc(Cl)cc12)C(=O)NCCS(N)(=O)=O [Example 497]

Reply:
1. 7.46
2. 7.58
3. 9.08
4. 7.23

Task item: Kindly indicate its recorded pEC50. Item: CC(C)(C)[C@H](NC(=O)c1nn(Cc2ccc(F)cc2)c2ccccc12)C(=O)N1CCCC(O)C1 (stereo partly drawn) [Example 251]
Reply: 8.63
